Quick list: Free cholesterol per entry.
Method summary: Propyl-thiouracil test (hypocholesterolemic action)
Type: in vivo, rats
Experimental setup: 100 mg/kg oral, rats, 11th day; control 0.20 g/l
Structures can show the parent of a compound that is named as a salt.

Molecule: CCN(CC)CC=C1CN=C(N(CC)CC)S1 [Derivative No. 15]
Free cholesterol [g/L]: 0.12
//
Molecule: CCN(CC)CC=C1CN=C(N2CCN(C)CC2)S1 [Derivative No. 12]
Free cholesterol [g/L]: 0.15
//
Molecule: CCCCNc1ncc(CCN(CC)CC)s1 [Derivative No. 9, dihydrochloride]
Free cholesterol [g/L]: 0.15
//
Molecule: CCN(CC)CC=C1CN=C(NC2CCCCC2)S1 [Derivative No. 1]
Free cholesterol [g/L]: 0.14

----------
Tested on: carrageenin-induced oedema
Method summary: Localised carrageenin-induced oedema method (anti-inflammatory action)
Type: in vivo, rat
Experimental setup: 50 mg/kg oral, 2nd hour
Outcome measure: reduction of the inflammatory reaction, 2nd hour

Smiles text: COc1ccc(N2CCN(CC=C3CN=C(NC4CCCCC4)S3)CC2)cc1
Assay result: 53
--
Smiles text: Clc1ccccc1N1CCN(CC=C2CN=C(NC3CCCCC3)S2)CC1
Assay result: 43
--
Smiles text: Clc1ccc(N2CCN(CC=C3CN=C(NC4CCCCC4)S3)CC2)cc1
Assay result: 44
--
Smiles text: FC(F)(F)c1cccc(N2CCN(CC=C3CN=C(NC4CCCCC4)S3)CC2)c1
Assay result: 50
--
Smiles text: C(CN1CCN(c2ccccc2)CC1)=C1CN=C(NC2CCCCC2)S1
Assay result: 46

----------
Method summary: LD50/24 hours by the method of Miller & Tainter, intravenous route (derivatives 34 to 38, species not restated)
Experimental setup: in vivo, read-out: LD50 /24 hours /kg of body weight
Outcome measure: LD50 at 24 h (mg/kg)

Molecule: Clc1ccccc1N1CCN(CC=C2CN=C(NC3CCCCC3)S2)CC1 [Derivative No. 37]
Assay result: 57
--
Molecule: FC(F)(F)c1cccc(N2CCN(CC=C3CN=C(NC4CCCCC4)S3)CC2)c1 [Derivative No. 36]
Assay result: 65
--
Molecule: Clc1ccc(N2CCN(CC=C3CN=C(NC4CCCCC4)S3)CC2)cc1 [Derivative No. 34]
Assay result: 35
--
Molecule: COc1ccc(N2CCN(CC=C3CN=C(NC4CCCCC4)S3)CC2)cc1 [Derivative No. 38]
Assay result: 52
--
Molecule: C(CN1CCN(c2ccccc2)CC1)=C1CN=C(NC2CCCCC2)S1 [Derivative No. 35]
Assay result: 48

----------
Tested on: ovalbumin-induced oedema
Method summary: Generalised ovalbumin-induced oedema method (anti-inflammatory action)
Assay type: in vivo, rats
Experimental setup: 50 mg/kg oral, 2nd hour
Outcome measure: percentage of reduction of oedematic reaction, 2nd hour (%)

Smiles text: Clc1ccccc1N1CCN(CC=C2CN=C(NC3CCCCC3)S2)CC1
Assay result: 68
//
Smiles text: C(CN1CCN(c2ccccc2)CC1)=C1CN=C(NC2CCCCC2)S1
Assay result: 65
//
Smiles text: Clc1ccc(N2CCN(CC=C3CN=C(NC4CCCCC4)S3)CC2)cc1
Assay result: 62
//
Smiles text: COc1ccc(N2CCN(CC=C3CN=C(NC4CCCCC4)S3)CC2)cc1
Assay result: 70
//
Smiles text: FC(F)(F)c1cccc(N2CCN(CC=C3CN=C(NC4CCCCC4)S3)CC2)c1
Assay result: 61
